Test: Solubility
Type: physicochemical
Conditions: read-out: solubility limit
recordedMetric: solubility
Form field: result (number plus unit)

Below, each entry is followed by its recorded solubility result.
compound	recordedMetric	result
O=c1[nH]c2cc([N+](=O)[O-])c([N+](=O)[O-])cc2[nH]c1=O [DNQX, 6,7-dinitroquinoxaline-2,3-[1H,4H]-dione, reference compound]	solubility	4 mM
N[C@@H](CC(CCCC(=O)NCC(=O)Nc1ccc(/N=N/c2ccc(NC(=O)CN3C(=O)C=CC3=O)cc2)cc1)C(=O)O)C(=O)O (stereo in doubt) [MAG-1]	solubility	0.2 mM

Shifting focus to the compound that follows.
Given Cl.N[C@@H](C[C@@H](CCCC(=O)NCC(=O)Nc1ccccc1)C(=O)O)C(=O)O [tether model 3] , state its recorded solubility.
10 mM
